- Method Notes: RP, 50 × 2.1 mm, 1.7 µm, 0.5 mL/min, estimated dead time 0.22 min; A: 98% water + 2% acetonitrile + 0.1% formic acid, pH 3; B: 2% water + 98% acetonitrile + 0.1% formic acid, pH 3; gradient (min/%B) 0/0 0.5/0 4/60 8/100 9/100 9.2/0 10/0
- Condition Label: stereoisomer not certain
Measured Property: LC retention time (min)

Here is how some compounds turned out for LC retention time.
Q. Reported LC retention time, compound CCCCCCCCCCCCCCCCC(=O)OCC(O)COP(=O)([O-])OCC[N+](C)(C)C (centres undefined) [LPC (17:0)] : ____
A. 5.3

Q. Do the same for CC(CCC(=O)NCC(=O)O)C1CCC2C3C(O)CC4CC(O)CCC4(C)C3CC(O)C12C (centres undefined) [glycocholic acid (GCA)] please
A. 3.36

Q. Similarly, CCC=CCC=CCC=CCC=CCC=CCC=CCCC(=O)OC(CO)COP(=O)(O)OCCN (centres undefined) [LPE (0:0/22:6(4Z,7Z,10Z,13Z,16Z,19Z))] ?
A. 4.71

Q. Try the compound CC(CCC(=O)NCC(=O)O)C1CCC2C3CCC4CC(O)CCC4(C)C3CC(O)C12C (centres undefined) [glycodeoxycholic acid (GDCA)]
A. 3.78

Q. And then CC(CCC(=O)NCCS(=O)(=O)O)C1CCC2C3C(O)CC4CC(O)CCC4(C)C3CCC12C (centres undefined) [taurochenodeoxycholic acid (TCDCA)] , what is it?
A. 3.45

(I) CCCCCCCCCCCCCCC(=O)OCC(O)COP(=O)([O-])OCC[N+](C)(C)C (centres undefined) [LPC (15:0)]
(II) O=c1cc2oc3ccccc3oc-2cc1=O [dibenzo[1,4]dioxin-2,3-dione]
Q. Would you mind telling me which has the lower recorded LC retention time between I and II ? Mark your selection by writing its label.
A. II
(II: 2.57 min, I: 4.67 min)

====

- Method Notes: RP, 50 × 2.1 mm, 1.7 µm, 0.5 mL/min, estimated dead time 0.22 min; A: 98% water + 2% acetonitrile + 0.1% formic acid, pH 3; B: 2% water + 98% acetonitrile + 0.1% formic acid, pH 3; gradient (min/%B) 0/0 0.5/0 4/60 8/100 9/100 9.2/0 10/0
- Condition Label: stereoisomer not certain
Measured Property: LC retention time (min)

For orientation, consider the following solved cases.
Q. Report LC retention time for CC(CCC(=O)NCCS(=O)(=O)O)C1CCC2C3C(O)CC4CC(O)CCC4(C)C3CC(O)C12C (stereo not drawn) [taurocholic acid (TCA)] please.
A. 3.08

Q. Input CC(CCC(=O)NCC(=O)O)C1CCC2C3C(O)CC4CC(OS(=O)(=O)O)CCC4(C)C3CCC12C (stereo not drawn) [glycochenodeoxycholate-3-sulfate]
A. 3.38

Q. Again, but for CCCCCCCCCCCCCCCC(=O)OCC(O)COP(=O)([O-])OCC[N+](C)(C)C (stereo not drawn) [LPC (16:0)]
A. 4.98

(P) CCC=CCC=CCC=CCC=CCCCCCCC(=O)OC(CO)COP(=O)(O)OCCN (stereo not drawn) [LPE (0:0/20:4(8Z,11Z,14Z,17Z))]
(Q) c1ccc(CSSCc2ccccc2)cc1 [dibenzyl disulfide]
Q. For the pair P and Q , which entry has the numerically smaller recorded LC retention time? Response format: the label of the selected entry.
A. Q
(Q: 2.39 min, P: 4.74 min)

From: the RepoRT retention time repository (doi:10.1016/j.aca.2012.07.013)
